# assay.procedure: Selectivity index, CC50 for human MT4 cells to EC50 for HIV1 3B
# Format: toxicity, cell-based
# setup.conditions: read-out: Ratio CC50/EC50
readout.label: selectivity ratio
Field format: numeric only.

Would you please look over these solved cases?
N#Cc1cccc(S(=O)(=O)n2c(=O)[nH]c3ccc(Cl)cc32)c1    1360
O=C1CN(S(=O)(=O)c2cccc(F)c2)c2cc(Cl)ccc2N1    27
O=C(CCl)Nc1ccc(Cl)cc1NS(=O)(=O)c1c(Cl)cccc1Cl    107
O=C(CCl)Nc1ccc(Cl)cc1NS(=O)(=O)c1c(F)cccc1F    25
O=c1[nH]c2ccc(Cl)cc2n1S(=O)(=O)c1cc(Cl)cc(Cl)c1    3740
O=C1CN(S(=O)(=O)c2c(F)cccc2F)c2cc(Cl)ccc2N1    9

Request: Recorded selectivity ratio for O=C1CN(S(=O)(=O)c2ccccc2F)c2cc(Cl)ccc2N1 , please?
Response: 32

Data provenance is ChEMBL document CHEMBL1153492.
